Just for reference, patent US20240254227A1 is where these values come from.

# system.tested: T1, murine CD300A-Fc (mouse)
# T1 construct: hIgG1-Fc fusion; the entry is the whole fusion chain; also called mCD300A; Mouse CD300A-Fc
# assay.notes: SPR (Carterra LSA), antibody immobilised, Fc fusion at 300 or 600 nM
# Description: Binding of mouse anti-CD300LB IgG1 antibodies of the present disclosure to human and murine CD300 orthologs were evaluated by surface plasmon resonance (SPR) using a Carterra LSA instrument (Carterra, Salt Lake City, UT). […] Binding was assessed by injecting each analyte over the entire antibody array using the single channel flow cell. […] Data were processed and analyzed using NextGenKIT high-throughput kinetics analysis software (Carterra). […]
quantity.measured: SPR binding (control subtracted)
One number for each entry.

Here's what some known entries look like.
anti-CD300LB antibody CD-10 (antibody, V domains shown) VH: QVQLQQSGPELVRPGVSVKISCKGSGYTFTDYAMHWVKQSHVRSREWIGVIGTYNGHTNYNQKFKGKATMTVDKSSSTAYLELARLTSEDSAIYYCARSGSYYYSMDYWGQGTSVTVSS VL: QIVLTQSPAIMSASPGEKVTMTCSASSSVNYMHWYQQKSGTSPKRWIYDTSKLSSGVPARFSGSGSGTSYSLTISTMEAEDAATYYCQQWSSNPPMTFGGGTKLEIK; -2.5
anti-CD300LB antibody CD-13 (antibody, V domains shown) VH: QIQLVQSGPELKKPGETVKISCKASGYTFTDYSMHWVKQAPGKGFKWMAWINTETGAPTHADDFRGRFAFSLETSASTAFLQISNLKTEDTATYFCVTFGKSYGMNYWGQGTSVTVSS VL: DIVLTQSPASLSVSLGQRATISCRASKSVGSSGSSYLHWYQQKPGQPPKLLIYLASNLESGVPARFSGSGSGTEFTLNIHPVEEEDAATYYCQHNAEVPPTFGGGTKLEIK; 4.4
anti-CD300LB antibody CD-17 (antibody, V domains shown) VH: QIQLVQSGPELKKPGETVKISCKASGYTLTDYSMHWVKQAPGKGLKWMGWINTETGEPRYGDDFKGRFAFSLETSASSAYLQINNLKNDDTATYFCATYGRSYGMDFWGQGTSVTVSS VL: DIVLTQSPASLAVSLGQRATISCRASKSVSPSGHSYMHWYQQKPGQPPKLLIYLASNLKSGVPARFSGSGSGTDFTLNIHPVEEGDAATYYCQHNRELPPTFGGGSKLEIK; 2.9

Give SPR binding (control subtracted) for all binders that follow.
1. anti-CD300LB antibody CD-18 (antibody, V domains shown) VH: DVQLQESGPDLVKPSQSLSLTCTVTGYSITSGYSWHWIRQFPDNKLEWMGYILSRGDTNFNPSLKSRISITRSTSNNQFFLHFNSVTTEDTATYYCARDFFDYWGQGTTLTVSS VL: DVLMTQTPLSLPVSLGDQASISCRSSQSIVHSNGNTYLEWYLQKPGQSPKLLIYKVSDRFSGVPDRFSGSGSGTDFTLKISRVEAEDLGVYFCFQGSHVPYTFGGGTKLEIK
2. anti-CD300LB antibody CD-15 (antibody, V domains shown) VH: QIQLVQSGPELKKPGETVKISCQVSGYTFTDYSMHWLKQAPGKGLKWMAWINTETGESTYTDEFKGRFVFSLETSVRTAYLKINNLKNEDTATYFCGTYGSSYGMAYWGQGTSVTVSS VL: DIVLTQSPASLPVSLGQRATISCRASKSVSTSGSSYLHWYQQKPGQPPKLLIYLASKLESGVPARFRGSGSGTDFTLNIHPVEEEDAATYYCQHNREVPPTFGGGTKLEIK

[2.9, 7.1]

Given the entry anti-CD300LB antibody CD-12 (antibody, V domains shown) VH: QIQLVQSGPELKKPGETVKISCKASGYTFTDYSMHWVRQAPGKGLKWMAWINTETGEATHADDFKGRFDFSLDTSASTAYLQIKNLKNEDTGIYFCVCYGSSYGMDYWGQGTSVTVSS VL: DIVLTQSPASLPVSLGQRATISCRASKSVRTSGASYMHWYQQKPGQPPKLLIYLASNLKSGVPTRFSGSGSGTDFTLNIHPVEEEDAATYYCQHNREVPPTFGGGTKLEIK , report its measured SPR binding (control subtracted).
4.2
